- Tested On: enzyme alcohol dehydrogenase (Saccharomyces cerevisiae)
- Construct: purchased Sigma Diagnostics 333-B
- Sequence (P00330 whole entry): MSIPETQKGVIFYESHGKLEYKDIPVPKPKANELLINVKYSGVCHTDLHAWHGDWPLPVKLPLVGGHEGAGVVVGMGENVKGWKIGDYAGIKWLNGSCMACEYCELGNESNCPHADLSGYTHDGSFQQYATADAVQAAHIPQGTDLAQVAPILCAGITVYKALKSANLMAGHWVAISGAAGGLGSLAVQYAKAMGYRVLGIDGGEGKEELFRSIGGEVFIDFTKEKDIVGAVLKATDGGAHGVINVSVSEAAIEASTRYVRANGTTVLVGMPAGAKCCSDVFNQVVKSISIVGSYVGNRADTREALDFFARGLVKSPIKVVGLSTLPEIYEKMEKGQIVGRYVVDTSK
- Protocol: Test of inhibition of the activity of the enzyme alcohol dehydrogenase (Sigma Diagnostics kit ref. 333-B)
- Type: biochemical
- Experimental Conditions: inhibitor 10^-3 M in the final mixture; 10 μl ethanol solution 0.08% w/v; incubated 10 minutes at room temperature; reference = 100
Measured Metric: percentage of absorbance at 340 nm relative to a reference (no inhibitor in the mixture) (%)
Express your answer in %, writing the number without its unit.

Retrieve percentage of absorbance at 340 nm relative to a reference (no inhibitor in the mixture) measured for c1c[nH]cn1 and print it. 32

Retrieve percentage of absorbance at 340 nm relative to a reference (no inhibitor in the mixture) measured for c1cn[nH]c1 and print it. 16

Retrieve percentage of absorbance at 340 nm relative to a reference (no inhibitor in the mixture) measured for OCC(Cl)(Cl)Cl and print it. -12

Retrieve percentage of absorbance at 340 nm relative to a reference (no inhibitor in the mixture) measured for CCn1nc(C)c(N)c1N and print it. 31

Retrieve percentage of absorbance at 340 nm relative to a reference (no inhibitor in the mixture) measured for Cc1cn[nH]c1 and print it. 35
